Taken from PubChem BioAssay.

experiment: binders of probe aFGF10 on microarray, primary screen, stem cell growth factor project, biochemical, small-molecule microarray, fluorescence 635/667 (AID 1071); details: higher = more signal;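 note: score merges 667 nm spot intensity and signal to noise from triplicate slides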
quantity kind: composite z-score
The response must contain the number and no unit.

compound	value measured
COC(=O)C(CC#Cc1ccc2c(c1)[C@]1(C(=O)N2)[C@H](C(=O)O)[C@H]2C(=O)O[C@H](c3ccccc3)[C@H](c3ccccc3)N2[C@@H]1c1ccc(O)cc1)C(=O)OC	0.528
COCCOC(=O)N1C(=O)[C@@]2(c3cc(C#CC4=CCCCC4)ccc31)[C@H](C(=O)N1CCc3cc(OC)c(OC)cc3C1)[C@H]1C(=O)O[C@H](c3ccccc3)[C@H](c3ccccc3)N1[C@@H]2c1ccc(OCCO)cc1	0.599
COCCOC(=O)N1C(=O)[C@@]2(c3ccccc31)[C@H](c1ccc(O)cc1)N1[C@H](c3ccccc3)[C@H](c3ccccc3)OC(=O)[C@H]1[C@@H]2C(=O)NC[C@H](O)c1ccccc1	0.157
CC(C)C[C@@H]1NC(=O)[C@H]2C[C@@H](C(=O)NCCCCCCN)[C@@H](c3ccc(O)cc3)N2C1=O	-0.0652
COCCn1c(C(=O)N2CCCC2)cc2c1C[C@H]1CN(C(=O)c3ccccc3)[C@@](Cc3ccc(F)cc3)(C(=O)OC)[C@@H]21	0.252

Field: next compound
Exercise: Could you please provide reported composite z-score for CC(C)(C)OC(=O)CC[C@@]1(C(=O)NCC(O)CO)N=C(c2ccc(OCCCO)cc2)O[C@@H]1c1ccccc1N=[N+]=[N-] (stereo partly specified) ? Thanks!
Key: 0.559

====

biological target: Torsin-1A-interacting protein 2 (Homo sapiens); assay: LULL1 binders on small-molecule microarray, primary screen, cell lysate, human LULL1 lysate, 635/667 nm fluorescence (AID 1092); conditions: hLULL1 lysate binding, 635 nm fluorescence, higher = more signal;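 note: probe is lysate of COS7 cells overexpressing human LULL1; score merges per-feature 667 nm fluorescence with signal-to-noise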
quantity kind: composite z-score

Example compounds with recorded composite z-score:
compound	composite z-score
CCOC(=O)C1=CCC(c2ccccc2)N(S(=O)(=O)CC[Si](C)(C)C)C1 (stereo unspecified)	0.0058
C=CCOC(=O)[C@H]1[C@@H]2C(=O)O[C@@H](c3ccccc3)[C@@H](c3ccccc3)N2[C@@H](c2ccc(OCCOC(=O)[C@H]3C[C@H]4C(=O)N[C@@H](CC(C)C)C(=O)N4[C@H]3c3ccc(O)cc3)cc2)[C@]12C(=O)Nc1ccc(I)cc12	2.62
C=CC[C@]1(C(=O)N2CCCCC2)N=C(c2ccc(OCCCO)cc2)O[C@H]1c1ccccc1	3.21
O=C1OCCC/C=C\[C@H]2OC34C=CCN(Cn5nnc6ccccc65)C(=O)[C@H]3N(CCCCCCO)C(=O)[C@@H]4C12 (stereo partly specified)	3.5
COCCOC(=O)N1C(=O)[C@@]2(c3cc(C#CC4=CCCCC4)ccc31)[C@H](C(=O)Nc1nc3ccccc3s1)[C@H]1C(=O)O[C@H](c3ccccc3)[C@H](c3ccccc3)N1[C@@H]2c1ccc(OCCO)cc1	1.82

Field: next compound
Exercise: Could you please provide reported composite z-score for CC(=O)n1cc(C(O)C2C=CC3C(=O)N(C)C(=O)C3N2Nc2ccccc2)c2ccccc21 (stereo unspecified) ? Thanks!
Key: 3.18

====

assay: binders of probe aFGF10 on microarray, primary screen, stem cell growth factor project, biochemical, small-molecule microarray, fluorescence 635/667 (AID 1071); conditions: higher = more signal;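 note: score merges 667 nm spot intensity and signal to noise from triplicate slides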
Lab note: compare composite z-score against 0.5. Equal or greater, write 1 (yes). Smaller, write 0 (no).

Reference set, count: 4
compound	label
O=C1C2C=CC(C(O)C(c3ccccc3)c3ccccc3)N(n3cnnc3)C2C(=O)N1Cc1ccccc1 (stereo not drawn)	1 (yes)
CN(C)CCCNC(=O)[C@@]1(C)c2ccccc2C(=O)N(Cc2cc(F)cc(C(F)(F)F)c2)[C@H]1c1ccc(CO)cc1	0 (no)
COC(=O)[C@@]1(Cc2ccc(OC)cc2)[C@H]2c3cc(C(=O)N4CCCC4)n(Cc4ccccc4)c3C[C@H]2CN1C(=O)c1ccccc1	1 (yes)
O=C1O[C@H](c2ccccc2)[C@H](c2ccccc2)N2[C@H]1[C@@H](C(=O)NC[C@H](O)c1ccccc1)[C@]1(C(=O)Nc3ccccc31)[C@H]2c1ccc(OCCO)cc1	0 (no)

Exercise: Could you tell me if the measured composite z-score of Cc1ccc(S[C@]2(C(=O)NCC(F)(F)F)CC(=O)N(C(C)C)[C@@H]2c2ccc(CO)cc2I)cc1 reaches 0.5 or more?
Key: 0 (no)

Exercise: Could you tell me if the measured composite z-score of CC(C)N1C(=O)[C@@]2(Cc3ccccc31)c1ccccc1C(=O)N(C1CCCCC1)[C@H]2c1ccc(CO)cc1 reaches 0.5 or more?
Key: 0 (no)

Exercise: Could you tell me if the measured composite z-score of COC(=O)c1c(CC[C@@H](CO)NC(=O)N[C@@H](C)Cn2cc(C3(O)CCCCC3)nn2)oc(C(C)=O)c1C(=O)OC reaches 0.5 or more?
Key: 1 (yes)
